# Test system: A-431
# protocol-text: Cytotoxicity against human A431 cells assessed as reduction in cell growth incubated for 72 hrs by MTT assay
# Format: functional, cell-based
# details: A-431, 72 h
Give measured log10 IC50 for each item. Keep answers brief.
A difference of one corresponds to tenfold IC50; all values are log10 with IC50 in µM.

Please state recorded log10 IC50 (tested on A-431) of `Cc1ccnc(/C(N)=N/NC(=S)N2CCCCCC2)c1` 0.90

Same lookup for `N/C(=N\NC(=S)N1CCN(c2ccccn2)CC1)c1ccc(F)cn1` , please. 1.13

Same lookup for `N/C(=N\NC(=S)N1CCSCC1)c1ccccn1` , please. 0.83

Same lookup for `N/C(=N\NC(=S)N1CCN(c2ccccn2)CC1)c1ccccn1` , please. 0.63

Same lookup for `N/C(=N\NC(=S)N1CCCCC1)c1ccccn1` , please. 0.84

Same lookup for `Cc1ccnc(/C(N)=N/NC(=S)N2CCN(c3ccccn3)CC2)c1` , please. 1.19

Same lookup for `N/C(=N\NC(=S)N1CCCC1)c1ccc(F)cn1` , please. 0.00

Same lookup for `Cc1cccc(/C(N)=N/NC(=S)N2CCSCC2)n1` , please. 0.41

Same lookup for `N/C(=N\NC(=S)N1CCCCCC1)c1ccccn1` , please. 0.48

Same lookup for `N/C(=N\NC(=S)N1CCCCCC1)c1ccc(F)cn1` , please. 0.00

Same lookup for `Cc1ccnc(/C(N)=N/NC(=S)N2CCCC2)c1` , please. -0.05

Same lookup for `Cc1cccc(/C(N)=N/NC(=S)N2CCOCC2)n1` , please. 0.63

Same lookup for `Cc1cccc(/C(N)=N/NC(=S)N2CCCCCC2)n1` , please. 1.17

Same lookup for `N/C(=N\NC(=S)N1CCOCC1)c1ccccn1` , please. 0.68

Same lookup for `N/C(=N\NC(=S)N1CCCC1)c1ccccn1` , please. 0.23

Same lookup for `Cc1ccnc(/C(N)=N/NC(=S)N2CCCCC2)c1` , please. 1.28

Same lookup for `N/C(=N\NC(=S)N1CCSCC1)c1ccc(F)cn1` , please. 0.08

Same lookup for `Cc1ccnc(/C(N)=N/NC(=S)N2CCSCC2)c1` , please. 0.86

Same lookup for `Cc1cccc(/C(N)=N/NC(=S)N2CCCCC2)n1` , please. 1.09

Same lookup for `N/C(=N\NC(=S)N1CCOCC1)c1ccc(F)cn1` , please. 0.60

Same lookup for `Cc1ccnc(/C(N)=N/NC(=S)N2CCOCC2)c1` , please. 0.83

Same lookup for `Cc1cccc(/C(N)=N/NC(=S)N2CCN(c3ccccn3)CC2)n1` , please. 1.29

Same lookup for `Cc1cccc(/C(N)=N/NC(=S)N2CCCC2)n1` , please. 0.60

====

# Test system: A-375
# protocol-text: Cytotoxicity against human A375 cells assessed as reduction in cell growth at 100 uM incubated for 72 hrs by MTT assay relative to control
# Assay type: functional
# details: A-375, 72 h, read-out: GI
Give measured inhibition of growth at 100 µM for each item. Keep answers brief.
Field: numeric (%). Do not append units.

Which inhibition of growth at 100 µM is listed for `N/C(=N\NC(=S)N1CCCCCC1)c1ccccn1` ? 89

Same lookup for `N/C(=N\NC(=S)N1CCSCC1)c1ccc(F)cn1` , please. 83.2

Same lookup for `N/C(=N\NC(=S)N1CCN(c2ccccn2)CC1)c1ccc(F)cn1` , please. 76.2

Same lookup for `N/C(=N\NC(=S)N1CCCCC1)c1ccccn1` , please. 88.5

Same lookup for `Cc1cccc(/C(N)=N/NC(=S)N2CCN(c3ccccn3)CC2)n1` , please. 83.8

Same lookup for `N/C(=N\NC(=S)N1CCCCCC1)c1ccc(F)cn1` , please. 85.7

Same lookup for `Cc1ccnc(/C(N)=N/NC(=S)N2CCCC2)c1` , please. 88.8

Same lookup for `Cc1cccc(/C(N)=N/NC(=S)N2CCCCCC2)n1` , please. 80.9

Same lookup for `Cc1cccc(/C(N)=N/NC(=S)N2CCCC2)n1` , please. 66.3

Same lookup for `N/C(=N\NC(=S)N1CCCC1)c1ccccn1` , please. 87.8

Same lookup for `N/C(=N\NC(=S)N1CCOCC1)c1ccc(F)cn1` , please. 86.2

Same lookup for `Cc1ccnc(/C(N)=N/NC(=S)N2CCN(c3ccccn3)CC2)c1` , please. 81
